Numbers sourced from ChEMBL document CHEMBL3137667.

assay-remarks: Highest frequency of moderate liver toxicity observed during clinical trials, expressed as a percentage. [column '% BIOL' in source]
condition-summary: human
Entries and their Hepatotoxicity (moderate)
Note: unit % is implicit; provide only the numeric part.

>  <compound>
CO[C@@H]1[C@@H](N)[C@@H](O[C@H]2[C@H](Oc3cccc4c(O)c5c(=O)oc6ccc(C)c7c(=O)oc(c34)c5c67)O[C@H](C)[C@H](O)[C@]2(C)O)O[C@H](C)[C@@H]1O

>  <parameter>
Hepatotoxicity (moderate)

>  <recorded-value>
13

$$$$
>  <compound>
CCC1=C[C@@H]2CN(C1)Cc1c([nH]c3ccccc13)[C@@](C(=O)OC)(c1cc3c(cc1OC)N(C)[C@H]1[C@@](O)(C(=O)OC)[C@H](OC(C)=O)[C@]4(CC)C=CCN5CC[C@]31[C@@H]54)C2

>  <parameter>
Hepatotoxicity (moderate)

>  <recorded-value>
24.1

$$$$
>  <compound>
CO/N=C(\C(=O)N[C@@H]1C(=O)N2C(C(=O)[O-])=C(C[n+]3ccn4ncccc43)CS[C@H]12)c1nsc(N)n1

>  <parameter>
Hepatotoxicity (moderate)

>  <recorded-value>
50

$$$$
>  <compound>
CC(O)(P(=O)(O)O)P(=O)(O)O

>  <parameter>
Hepatotoxicity (moderate)

>  <recorded-value>
8.7

$$$$
>  <compound>
CN(C)CCC=C1c2ccccc2COc2ccccc21 [DOXEPIN]

>  <parameter>
Hepatotoxicity (moderate)

>  <recorded-value>
33.3

$$$$
>  <compound>
NS(=O)(=O)c1cc2c(cc1Cl)NC(CC1CCCC1)NS2(=O)=O (stereo unspecified) [CYCLOPENTHIAZIDE]

>  <parameter>
Hepatotoxicity (moderate)

>  <recorded-value>
0

$$$$
>  <compound>
CN[C@@H]1[C@@H](O)[C@@H](O[C@@H]2[C@@H](O)[C@H](O[C@H]3OC(CN)=CC[C@H]3N)[C@@H](N)C[C@H]2N)OC[C@]1(C)O

>  <parameter>
Hepatotoxicity (moderate)

>  <recorded-value>
5.7

$$$$
>  <compound>
O=C(O)c1cc(/N=N/c2ccc(O)c(C(=O)O)c2)ccc1O

>  <parameter>
Hepatotoxicity (moderate)

>  <recorded-value>
15

$$$$

The recorded Hepatotoxicity (moderate) for entry O=C1CC2(CCCC2)CC(=O)N1CCCCN1CCN(c2ncccn2)CC1 equals 5.3

The recorded Hepatotoxicity (moderate) for entry C[Si](C)(C)c1cccc(C(=O)C(F)(F)F)c1 equals 0

The recorded Hepatotoxicity (moderate) for entry CC#CCC(C)[C@H](O)/C=C/[C@@H]1[C@H]2c3cccc(CCCC(=O)O)c3O[C@H]2C[C@H]1O (stereo partly specified) equals 13

The recorded Hepatotoxicity (moderate) for entry CC(=N)N1CC[C@H](SC2=C(C(=O)O)N3C(=O)[C@H]([C@@H](C)O)[C@H]3C2)C1.O=C(O)CCNC(=O)c1ccccc1 equals 38.5

The recorded Hepatotoxicity (moderate) for entry CCN1CCC[C@H]1CNC(=O)c1c(O)c(Cl)cc(Cl)c1OC [RACLOPRIDE] equals 2.2

The recorded Hepatotoxicity (moderate) for entry C(=N\NC1=NCCN1)/c1c2ccccc2c(/C=N/NC2=NCCN2)c2ccccc12 equals 49

The recorded Hepatotoxicity (moderate) for entry CCC(=O)NS(=O)(=O)c1ccc(-c2c(-c3ccccc3)noc2C)cc1 equals 6.5

The recorded Hepatotoxicity (moderate) for entry CN1CCN(CCCN2c3ccccc3Sc3ccc(C(F)(F)F)cc32)CC1 equals 0

The recorded Hepatotoxicity (moderate) for entry CC[C@]1(O)CC[C@H]2[C@@H]3CCC4=CC(=O)CC[C@@H]4[C@H]3CC[C@@]21C equals 24

====

condition-summary: human
parameter: Hepatotoxicity (severe hepatitis)
Kindly provide the number alone.

>  <compound>
Cc1onc(-c2ccccc2)c1C(=O)N[C@@H]1C(=O)N2[C@@H]1SC(C)(C)[C@@H]2C(=O)O [OXACILLIN]

>  <Hepatotoxicity (severe hepatitis)>
0

$$$$
>  <compound>
COc1cc(C)c(/C=C/C(C)=C/C=C/C(C)=C/C(=O)O)c(C)c1C [ACITRETIN]

>  <Hepatotoxicity (severe hepatitis)>
0

$$$$

The recorded Hepatotoxicity (severe hepatitis) for entry O=C(CCCN1CCC(O)(c2ccc(Cl)cc2)CC1)c1ccc(F)cc1 [HALOPERIDOL] equals 0

====

condition-summary: human, serum
Rule: Hepatotoxicity (acute) under 5 gives false (0), otherwise true (1).

Recorded results for 7 molecules are shown here.
>  <molecule>
NS(=O)(=O)c1cc2c(cc1C(F)(F)F)NC(Cc1ccccc1)NS2(=O)=O (centres undefined) [BENDROFLUMETHIAZIDE]

>  <class-assignment>
false (0)

$$$$
>  <molecule>
CNCCON=c1c2ccccc2ccc2ccccc12

>  <class-assignment>
false (0)

$$$$
>  <molecule>
CC(C)OC(=O)C(C)(C)Oc1ccc(C(=O)c2ccc(Cl)cc2)cc1 [FENOFIBRATE]

>  <class-assignment>
true (1)

$$$$
>  <molecule>
COc1ccc2c(c1)c(CC(=O)O)c(C)n2C(=O)c1ccc(Cl)cc1

>  <class-assignment>
true (1)

$$$$
>  <molecule>
O=C1NC(=O)C(c2ccccc2)(c2ccccc2)N1

>  <class-assignment>
true (1)

$$$$
>  <molecule>
NC(=O)c1cnccn1 [PYRAZINAMIDE]

>  <class-assignment>
true (1)

$$$$
>  <molecule>
CCN(CCCc1ccccc1)CCCc1ccccc1

>  <class-assignment>
false (0)

$$$$

# evaluate next
Challenge: Is it the case that COc1cc2[nH]c(C)c(CCN3CCN(c4ccccc4)CC3)c2cc1OC has Hepatotoxicity (acute) reaching or exceeding 5?
Response given: false (0)

====

condition-summary: human
parameter: Hepatotoxicity (choleostasis)
Kindly provide the number alone.

Completed entries (count: 3):
>  <compound>
FC(F)OC(F)(F)C(F)Cl (configuration not stated)

>  <Hepatotoxicity (choleostasis)>
7

$$$$
>  <compound>
CC(=O)N1CCN(c2ccc(OCC3COC(Cn4ccnc4)(c4ccc(Cl)cc4Cl)O3)cc2)CC1 (configuration not stated) [KETOCONAZOLE]

>  <Hepatotoxicity (choleostasis)>
19

$$$$
>  <compound>
CC(=O)c1ccc(S(=O)(=O)NC(=O)NC2CCCCC2)cc1 [ACETOHEXAMIDE]

>  <Hepatotoxicity (choleostasis)>
0

$$$$

The recorded Hepatotoxicity (choleostasis) for entry Clc1ccccc1C(c1ccccc1)(c1ccccc1)n1ccnc1 [CLOTRIMAZOLE] equals 0

The recorded Hepatotoxicity (choleostasis) for entry CC[C@H]1OC(=O)[C@H](C)[C@@H](O[C@H]2C[C@@](C)(OC)[C@@H](O)[C@H](C)O2)[C@H](C)[C@@H](O[C@@H]2O[C@H](C)C[C@H](N(C)C)[C@H]2O)[C@](C)(O)C[C@@H](C)C(=O)[C@H](C)[C@@H](O)[C@]1(C)O [ERYTHROMYCIN] equals 55

The recorded Hepatotoxicity (choleostasis) for entry Cc1cc(Br)c(O)c2ncccc12 [TILBROQUINOL] equals 0

The recorded Hepatotoxicity (choleostasis) for entry CCOC(Nc1ccc(C(=O)O)cc1)C(=O)c1ccc(-c2ccccc2)cc1 (configuration not stated) [XENAZOIC ACID] equals 0

The recorded Hepatotoxicity (choleostasis) for entry [Se] equals 0

The recorded Hepatotoxicity (choleostasis) for entry C=CC1=C(C(=O)O)N2C(=O)[C@@H](NC(=O)/C(=N\O)c3csc(N)n3)[C@H]2SC1 equals 0

The recorded Hepatotoxicity (choleostasis) for entry Cc1ncc(-c2csc(N=C(N)N)n2)[nH]1 [ZALTIDINE] equals 0

====

condition-summary: human
Entries and their Hepatotoxicity (severe hepatitis)
Kindly provide the number alone.

Completed entries (count: 3):
>  <compound>
COc1c2occc2c(OC)c2c(=O)cc(C)oc12

>  <Hepatotoxicity (severe hepatitis)>
0

$$$$
>  <compound>
C[C@](N)(Cc1ccc(O)c(O)c1)C(=O)O

>  <Hepatotoxicity (severe hepatitis)>
13

$$$$
>  <compound>
COc1cc2c(cc1OC)C(=O)C(CC1CCN(Cc3ccccc3)CC1)C2 (centres undefined)

>  <Hepatotoxicity (severe hepatitis)>
0

$$$$

As a next step, examine the compound that follows.
The recorded Hepatotoxicity (severe hepatitis) for entry CS[C@H]1SC[C@H]2C(=O)N(C)[C@@H](C(C)C)C(=O)OC[C@@H](NC(=O)c3cnc4ccccc4n3)C(=O)N[C@@H](C)C(=O)N(C)[C@@H]1C(=O)N(C)[C@@H](C(C)C)C(=O)OC[C@@H](NC(=O)c1cnc3ccccc3n1)C(=O)N[C@@H](C)C(=O)N2C equals 1

====

condition-summary: human
parameter: Hepatotoxicity (choleostasis)
Kindly provide the number alone.

Completed entries (count: 5):
>  <molecule>
CN1CCN2c3ncccc3Cc3ccccc3C2C1 (stereo unspecified)

>  <Hepatotoxicity (choleostasis)>
0

$$$$
>  <molecule>
CC(C)=CCC1C(=O)N(c2ccccc2)N(c2ccccc2)C1=O

>  <Hepatotoxicity (choleostasis)>
2

$$$$
>  <molecule>
N[C@@H](Cc1ccc(O)c(O)c1)C(=O)O

>  <Hepatotoxicity (choleostasis)>
1

$$$$
>  <molecule>
CC(=O)Oc1cccc2c1C(=O)c1c(OC(C)=O)cc(C(=O)O)cc1C2=O

>  <Hepatotoxicity (choleostasis)>
1

$$$$
>  <molecule>
CN1CCC(=C2c3ccccc3C=Cc3ccccc32)CC1

>  <Hepatotoxicity (choleostasis)>
3

$$$$

As a next step, examine the molecule that follows.
The recorded Hepatotoxicity (choleostasis) for entry O=C(O)Cc1ccccc1Oc1ccc(Cl)cc1Cl equals 0
